Biological target: AKT1 WT (Homo sapiens)
Construct: expressed in transfected cells; host or cells: HEK293
Sequence (P31749 whole entry): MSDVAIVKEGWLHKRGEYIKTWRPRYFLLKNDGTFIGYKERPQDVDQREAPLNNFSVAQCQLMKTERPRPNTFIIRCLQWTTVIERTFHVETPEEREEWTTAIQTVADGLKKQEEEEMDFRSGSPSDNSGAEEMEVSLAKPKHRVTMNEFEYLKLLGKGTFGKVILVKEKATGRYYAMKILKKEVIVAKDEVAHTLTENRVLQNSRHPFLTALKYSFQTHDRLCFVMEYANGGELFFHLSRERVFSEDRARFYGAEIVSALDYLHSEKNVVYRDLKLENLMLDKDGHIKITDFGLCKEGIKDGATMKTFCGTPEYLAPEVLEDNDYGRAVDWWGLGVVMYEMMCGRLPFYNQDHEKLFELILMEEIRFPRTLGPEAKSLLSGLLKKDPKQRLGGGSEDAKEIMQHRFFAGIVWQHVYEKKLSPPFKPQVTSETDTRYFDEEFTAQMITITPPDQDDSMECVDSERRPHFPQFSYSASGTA
Assay: Live cell AKT1 WT target engagement by NanoBRET competitive probe displacement in HEK293 cells
Format: binding
Settings: NanoBRET live cell target engagement, HEK293 cells, 2 h at 37° C.; read-out: AKT1 WT IC50
reported property: IC50 (nM)

Here's what some known entries look like.
Nc1ncccc1-c1nc2ccc(-n3cccn3)nc2n1-c1ccc2c(c1)CC[C@@H]2NC(=O)c1ccnn1C(F)F: 69.6
COc1ccc(C(=O)N[C@H]2CCc3cc(-n4c(-c5cccnc5N)nc5ccc(-n6cccn6)nc54)ccc32)cc1F: 4.06
CC(=O)Nc1ccc(C(=O)N[C@H]2CCc3cc(-n4c(-c5cccnc5N)nc5ccc(-n6cccn6)nc54)ccc32)cn1: 13.5
Nc1ncccc1-c1nc2ccc(-n3cccn3)nc2n1-c1ccc2c(c1)CC[C@@H]2n1cnnc1: 20.2

A: Nc1ncccc1-c1nc2ccc(-n3cccn3)nc2n1-c1ccc2c(c1)CC[C@@H]2NC(=O)c1ccc(O)c(O)c1
B: Nc1ncccc1-c1nc2ccc(-n3cccn3)nc2n1-c1ccc2c(c1)CC[C@@H]2NC(=O)c1cccnc1F
C: COc1ccc(C(=O)N[C@H]2CCc3cc(-n4c(-c5cccnc5N)nc5ccc(-n6cccn6)nc54)ccc32)cc1
D: COc1cc(C(=O)N[C@H]2CCc3cc(-n4c(-c5cccnc5N)nc5ccc(-n6nccn6)nc54)ccc32)cnc1C(F)F
E: Nc1ncccc1-c1nc2ccc(-n3cccn3)nc2n1-c1ccc2c(c1)CC[C@@H]2NC(=O)c1ccc(O)c(F)c1
### Prompt Ascending by IC50, please. Give the order by naming the labels one after another as requested.
### Response E, C, B, D, A
(E: 2.41 nM, C: 7.56 nM, B: 12.6 nM, D: 20.7 nM, A: 45.6 nM)

a: Nc1ncccc1-c1nc2ccc(-n3cccn3)nc2n1-c1ccc2c(c1)CC[C@@H]2NC(=O)c1cc2ncccn2n1
b: Cc1ncccc1C(=O)N[C@@H]1c2ccc(-n3c(-c4cccnc4N)nc4ccc(-n5cccn5)nc43)cc2CC1(F)F
### Prompt Would you kindly point out which of a and b has the smaller IC50 figure? To answer, give the label that identifies your chosen option.
### Response b
(b: 6.73 nM, a: 24.7 nM)

A: COCCOc1cc(C(=O)N[C@H]2CCc3cc(-n4c(-c5cccnc5N)nc5ccc(-n6cccn6)nc54)ccc32)ccn1
B: Cc1nc2ncccc2c(=O)n1[C@H]1CCc2cc(-n3c(-c4cccnc4N)nc4ccc(-n5cccn5)nc43)ccc21
### Prompt Which shows the larger IC50 value: A or B ? To answer, give the label that identifies your chosen option.
### Response B

----------
Molecular target: AKT1 WT (Homo sapiens)
Construct: expressed in transfected cells; host or cells: HEK293
Test: Live cell AKT1 WT target engagement by NanoBRET competitive probe displacement in HEK293 cells
Format: binding
Conditions: NanoBRET live cell target engagement, HEK293 cells, 2 h at 37° C.; read-out: AKT1 WT IC50
pIC50: −log10 of the molar value.
reported property: pIC50

Here's what some known entries look like.
Cc1cn(C)nc1C(=O)N[C@H]1CCc2cc(-n3c(-c4cccnc4N)nc4ccc(-n5cccn5)nc43)ccc21: 6.69
Nc1ncccc1-c1nc2ccc(-n3cccn3)nc2n1-c1ccc2c(c1)CC[C@@H]2n1cc(C2CCO2)nn1 (stereo partly drawn) [Compound 353]: 7.60
Nc1ncccc1-c1nc2ccc(-n3cccn3)nc2n1-c1ccc2c(c1)CC[C@@H]2NC(=O)c1cnccn1: 7.36
CC(C)(C)c1cn([C@H]2CCc3cc(-n4c(-c5cccnc5N)nc5ccc(-n6cccn6)nc54)ccc32)nn1: 7.08
Nc1ncccc1-c1nc2ccc(-n3cccn3)nc2n1-c1ccc2c(c1)CC[C@@H]2NC(=O)c1ccn(C(F)F)n1: 7.88
COc1cc(C(=O)N[C@H]2CCc3cc(-n4c(-c5cccnc5N)nc5ccc(-n6cccn6)nc54)ccc32)cc(OC)n1: 8.56

1: COc1nccc(C(=O)N[C@H]2CCc3cc(-n4c(-c5cccnc5N)nc5ccc(-n6cccn6)nc54)ccc32)c1OC
2: Nc1ncccc1-c1nc2ccc(-n3cccn3)nc2n1-c1ccc2c(c1)CC[C@@H]2NCc1ccnc(OC(F)(F)F)c1
### Prompt Which shows the larger pIC50 value: 1 or 2 ? To answer, give the label that identifies your chosen option.
### Response 1
(1: 7.77, 2: 7.49)
